This section presents binders with their documented kon values.
Target or system: T1, hK1 (human tissue kallikrein 1), recombinant (human, UniProt P06870 25-262)
T1 construct: Expressed in P. pastoris from KLK1 cDNA and purified; enzymatically active; also called KLK1; Recombinant (Pichia) Kallikrein
Assay explanation: SPR
The response must be a number in M⁻¹ s⁻¹ with no trailing unit.

Data request: # query: kon of entry M0124-A01 (Fab, V domains shown) VH: EVQLLESGGGLVQPGGSLRLSCAASGFTFSNYPMYWVRQAPGKGLEWVSRIGPSGGHTDYADSVKGRFTISRDNSKNTLYLQMNSLRAEDTAVYYCARAGVWSGLDYWGQGTLVTVSS VL: DIQMTQSPSSLSASVGDRVTITCRASQSITGYLNWYQQKPGKAPKLLIYAASSLQSGVPSRFSGSGSGTDFTLSISSLQPEDFATYYCQQSYSTPYTFGQGTKLEIKR
Data returned: 336000

Data request: For M0093-F09 (Fab, V domains shown, also called M093-F09) VH: EVQLLESGGGLVQPGGSLRLSCAASGFTFSDYRMWWVRQAPGKGLEWVSYIVPSGGQTSYADSVKGRFTISRDNSKNTLYLQMNSLRAEDTAVYYCARGSAYQRRTYSSGWYSASGRRGTAEYFQHWGQGTLVTVSS VL: AQSALTQPASVSGSPGQSITISCTGTSTDDVGGYNYVSWYQQHPGKAPKLMIYDVINRPSGVSNRFSGSKSGNTASLTISGLQAEDEADYYCSSYTSRGTRVFGTGTKVTVLG , what is its reported kon?
Data returned: 600000

Data request: Item M0107-D05 (Fab, V domains shown) VH: EVQLLESGGGLVQPGGSLRLSCAASGFTFSNYHMQWVRQAPGKGLEWVSSIYPSGGFTRYADSVKGRFTISRDNSKNTLYLQMNSLRAEDTAVYYCARDGGQGGWGQGTLVTVSS VL: DIQMTQSPSTLSASVGDRVTITCRASQSISSWLAWYQQKPGKVPKLLIHAASTLQSGVPSRFSGSGSGTDFTLTISSLQPEDVATYYCQKYNSAPLTFGGGTKVEIKR has what recorded kon?
Data returned: 195000
